Species on record: Homo sapiens
Test name: Selectivity ratio of IC50 for PI3Kdelta (unknown origin) using PIP2:3PS peptide as substrate preincubated for 15 mins followed by ATP addition at Km concentration and further incubated for 120 mins by ADP-Glo assay to IC50 for PI3Kalpha (unknown origin) using PIP2:3PS peptide as substrate preincubated for 15 mins followed by ATP addition at Km concentration and further incubated for 150 mins by ADP-Glo assay
Readout kind: Ratio IC50
# output: bare number, no unit

Example results:
smiles_input=CNC(=O)[C@H](C)Cn1cnc2ccc(-c3cnc(CO)c(NS(=O)(=O)c4ccc(F)cc4Cl)c3)cc2c1=O assay_value=17.9
smiles_input=CCN(CC)C(=O)[C@H](C)Cn1cnc2ccc(-c3cnc(OC)c(NS(=O)(=O)c4ccc(F)cc4Cl)c3)cc2c1=O assay_value=0.63
smiles_input=COc1ncc(-c2ccc3ncn(C[C@@H](C)C(=O)N(C)C(C)C)c(=O)c3c2)cc1NS(=O)(=O)c1ccc(F)cc1Cl assay_value=0.78

Ask | Looking for the measured Ratio IC50 of COc1ncc(-c2ccc3ncc(NC(=O)N4CCC[C@H]4C(N)=O)c(=O)n3c2)cc1NS(=O)(=O)c1ccc(F)cc1Cl , can you help?
Reply | 3.4

Ask | Looking for the measured Ratio IC50 of COc1ncc(-c2ccc3ncn(C[C@@H](C)C(=O)NC4CC4)c(=O)c3c2)cc1NS(=O)(=O)c1ccc(F)cc1Cl , can you help?
Reply | 2.61

Ask | Looking for the measured Ratio IC50 of CNC(=O)[C@H](C)Cn1cnc2ccc(-c3cnc(OC)c(NS(=O)(=O)c4cc(C(F)(F)F)cc(C(F)(F)F)c4)c3)cc2c1=O , can you help?
Reply | 19.4

Ask | Looking for the measured Ratio IC50 of COc1ncc(-c2ccc3ncn(CCCC(N)=O)c(=O)c3c2)cc1NS(=O)(=O)c1ccc(F)cc1Cl , can you help?
Reply | 1.91
